What IC50 was measured for each of the following?
# Tested System: full length human TPH1 (Homo sapiens, UniProt P17752)
# Construct: To generate the enzyme, full length human TPH1 is cloned into the plasmid pET20b(+); made in house; host or cells: E. coli
# Sequence (P17752 whole entry): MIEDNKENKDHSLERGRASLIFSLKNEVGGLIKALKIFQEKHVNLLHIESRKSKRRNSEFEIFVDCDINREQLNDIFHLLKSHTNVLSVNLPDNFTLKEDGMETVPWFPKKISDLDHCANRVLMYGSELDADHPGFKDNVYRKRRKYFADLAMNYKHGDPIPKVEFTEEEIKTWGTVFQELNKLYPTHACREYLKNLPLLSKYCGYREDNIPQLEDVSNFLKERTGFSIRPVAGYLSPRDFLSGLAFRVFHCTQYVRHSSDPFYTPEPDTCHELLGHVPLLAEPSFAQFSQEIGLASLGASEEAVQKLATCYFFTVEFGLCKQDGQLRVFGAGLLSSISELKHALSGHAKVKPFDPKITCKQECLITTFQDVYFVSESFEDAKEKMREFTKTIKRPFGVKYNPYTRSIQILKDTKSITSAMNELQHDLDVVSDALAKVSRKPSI
# Experiment: Biochemical in vitro assay using fluorescence readout (TPH1 enzyme activity)
# Reported Conditions: Table 1, mean where determined several times
Just the number in nM, nothing appended.

// sample CN(C(=O)c1ccc(OCC(=O)N2CCc3nc4n(c3C2c2ccc(Cl)cc2F)CCCC4)c(Cl)n1)C1CC1 (stereo not drawn) , its IC50 was 29

// sample O=C(COc1ccc(N2CCOCC2)cc1Cl)N1CCc2nc3n(c2C1c1ccc(C2CC2)cc1F)CCN(CC1CC1)C3 (stereo not drawn) , its IC50 was 8

// sample CCNC(=O)Nc1nc(C2c3c(nc4n3CCN(C(C)=O)C4)CCN2C(=O)COc2ccc(N3CCOCC3)nc2Cl)cs1 (stereo not drawn) , its IC50 was 100

###

# Tested System: full length human TPH1 (Homo sapiens)
# Construct: To generate the enzyme, full length human TPH1 is cloned into the plasmid pET20b(+); made in house; host or cells: E. coli
# Experiment: Biochemical in vitro assay using fluorescence readout (TPH1 enzyme activity)
# Reported Conditions: Table 1, mean where determined several times
What IC50 was measured for each of the following?
Just the number in nM, nothing appended.

# IC50 measured on full length human TPH1 (Homo sapiens) for item CCc1nc(N2CCCS2(=O)=O)ccc1OCC(=O)N1CCc2nc3n(c2C1c1cnc(C)s1)CCCC3 (centres unmarked) = 27

# IC50 measured on full length human TPH1 (Homo sapiens) for item CCc1nc(NS(C)(=O)=O)ccc1OCC(=O)N1CCc2nc3n(c2C1c1ccc(C)c(F)c1F)CCC3 (centres unmarked) = 8

# IC50 measured on full length human TPH1 (Homo sapiens) for item CCc1nc(NS(C)(=O)=O)ncc1OCC(=O)N1CCc2nc3n(c2C1c1ccc(C)c(F)c1F)CCCC3 (centres unmarked) = 58

# IC50 measured on full length human TPH1 (Homo sapiens) for item CC(=O)N1CCn2c(nc3c2C(c2ncc(C)cc2F)N(C(=O)COc2ccc(N4CC(F)(F)C4)nc2Cl)CC3)C1 (centres unmarked) = 51

# IC50 measured on full length human TPH1 (Homo sapiens) for item Cc1nc(C(F)(F)F)sc1C1c2c(nc3n2CCCC3)CCN1C(=O)COc1ccc(NS(C)(=O)=O)nc1Cl (centres unmarked) = 126

###

What IC50 was measured for each of the following?
# Tested System: full length human TPH1 (Homo sapiens, UniProt P17752)
# Construct: To generate the enzyme, full length human TPH1 is cloned into the plasmid pET20b(+); made in house; host or cells: E. coli
# Experiment: Biochemical in vitro assay using fluorescence readout (TPH1 enzyme activity)
# Reported Conditions: Table 1, mean where determined several times
Just the number in nM, nothing appended.

// sample Cc1ccc(C2c3c(nc4n3CCCC4)CCN2C(=O)COc2ccc(C(=O)N(C)C3CC3)nc2Cl)c(F)c1 (centres unmarked) , its IC50 was 22

// sample COCc1ccc(C2c3c(nc4n3CCCC4)CCN2C(=O)COc2ccc(C(=O)NC3CC3)nc2Cl)c(F)c1 (centres unmarked) , its IC50 was 19

// sample CCc1nc(NS(C)(=O)=O)ncc1OCC(=O)N1CCc2nc3n(c2C1c1ccc(C2CC2)cc1F)CCCC3 (centres unmarked) , its IC50 was 54

// sample COC(=O)c1csc(C2c3c(nc4n3CCN(C(C)=O)C4)CCN2C(=O)COc2ccc(N3CCOCC3)nc2Cl)c1 (centres unmarked) , its IC50 was 5

// sample COC(C)(C)c1ccc(C2c3c(nc4n3CCCC4)CCN2C(=O)COc2ccc(C(=O)NC3CC3)nc2Cl)c(F)c1 (centres unmarked) , its IC50 was 68
